experiment: NCI Yeast Anticancer Drug Screen. Data for the sgs1 mgt1 strain (AID 161);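 note: 0% = growth of cultures given vehicle only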; settings: S. cerevisiae sgs1 mgt1 strain, at 50.0 µM (retest, dose inferred, filed as 5.0)
Compounds without any hit were thinned out: in the full panel of roughly 79,000, 15% have a hit. The source made the active and inactive calls. Cut-off read from the data, not from the text of the source: active = growth inhibition above about 70%; inactive = the rest. Where a SMILES comes first, the peptide text is derived from it. [ ]: non-standard residue; d: D form. Phe(4-Cl) = N[CH](Cc1ccc(Cl)cc1)C(=O)O; 3Pal = N[CH](Cc1cccnc1)C(=O)O
Possible outcomes: t = active, f = inactive

[[record]]
compound = "CC(=O)NC(Cc1ccc(Cl)cc1)C(=O)NC(Cc1ccc(Cl)cc1)C(=O)NC(Cc1cccnc1)C(=O)NC(CO)C(=O)NC(Cc1ccc(O)cc1)C(=O)NC(CCCN=C(N)N)C(=O)NC(CC(C)C)C(=O)NC(CCCN=C(N)N)C(=O)N1CCCC1C(=O)NC(C)C(=O)O (stereo not drawn) (Ac-[Phe(4-Cl)][Phe(4-Cl)][3Pal]SYRLRPA-OH; configuration not given here)"
class_name = "f"

[[record]]
compound = "O=C(Nc1cccc(C(F)(F)F)c1)C(Cl)=C(Cl)Cl"
class_name = "t"

[[record]]
compound = "CCCCC(=O)OC1=C(Br)C(=O)c2ccccc2C1=O"
class_name = "t"


---

assay: NCI Yeast Anticancer Drug Screen. Data for the mlh1 rad18 strain (AID 175); conditions: S. cerevisiae mlh1 rad18 strain growth inhibition; at 50.0 µM; hits give high values
Compounds without any hit were thinned out: in the full panel of roughly 79,000, 15% have a hit.
measure: growth inhibition (%)

[[record]]
compound = "NC(=O)NOC(=O)c1ccccc1"
recorded_result = 96.8

[[record]]
compound = "O=C(N/N=C/c1ccccc1O)c1ccccc1-n1cccc1"
recorded_result = 63.1

[[record]]
compound = "COC(=O)c1cc(=O)n(-c2ccccc2C(F)(F)F)c(SC)n1"
recorded_result = 99.5

[[record]]
compound = "CCOC(=O)/C=C(\\CC(=O)OCC)C(=O)OCC"
recorded_result = 99.3

[[record]]
compound = "COc1ccccc1NC(=O)C1=CNC(C)=C(C(=O)Nc2ccccc2OC)C1/C=C/c1ccccc1 (configuration not stated)"
recorded_result = 15.3

[[record]]
compound = "Cc1cc2ccc(N)nc2[nH]c1=O"
recorded_result = 24.8

[[record]]
compound = "C(=C\\[n+]1ccc2ccccc2c1)/c1ccccc1"
recorded_result = 74.9

[[record]]
compound = "CC1(CCC(=O)O)c2ccc3ccccc3c2Oc2c1ccc1ccccc21"
recorded_result = 94.8

[[record]]
compound = "COCCn1cc(F)c(=O)[nH]c1=O"
recorded_result = -5.45

[[record]]
compound = "Oc1ccc2ccccc2c1.[Cu+2]"
recorded_result = 98

[[record]]
compound = "O=S(=O)(O)CC[S][Sn]([S]CCS(=O)(=O)O)([c]1ccccc1)[c]1ccccc1 (tested in a mixture with another compound)"
recorded_result = 90.7

[[record]]
compound = "COc1ncnc2nc(SC)[nH]c12"
recorded_result = 99.5


---

assay: NCI Yeast Anticancer Drug Screen. Data for the rad50 strain (AID 155);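 note: 0% = growth of vehicle-only cultures of the same strain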; conditions: S. cerevisiae rad50 strain growth inhibition; at 5.0 µM (retest, dose inferred, filed as 0.5); hits give high values
The panel holds about 79,000 compounds, 15% with a hit somewhere; the sample as a whole holds those more often. Calls of active or inactive are those of the source. Cut-off read from the data, not from the text of the source: active = growth inhibition above about 70%; inactive = the rest.
measure: growth inhibition

[[record]]
molecule = "CC12CCC(C(Br)(Br)C1=O)C2(C)C (stereo unspecified)"
recorded_result = "29% (inactive)"

[[record]]
molecule = "COc1ccc(C(CC(=O)c2ccccc2)Sc2ccccc2N)cc1 (stereo unspecified)"
recorded_result = "46% (inactive)"

[[record]]
molecule = "CCOc1ccc(C(=O)CCN2CCOCC2)cc1"
recorded_result = "8% (inactive)"

[[record]]
molecule = "CC1=CC(C)C(C)N(CCNC(=O)Nc2ccccc2)c2ccccc21 (stereo unspecified)"
recorded_result = "17% (inactive)"

[[record]]
molecule = "CC(C)(Oc1ccc(-c2cccc3ccccc23)cc1)C(=O)O"
recorded_result = "9% (inactive)"

[[record]]
molecule = "O=C(O)C(O)C(O)C(O)C(O)CO.[Ag] (stereo unspecified)"
recorded_result = "99% (active)"

[[record]]
molecule = "CCC[CH2][Sn]([CH2]CCC)([NH]c1ncnc2[nH]cnc12)[NH]c1ncnc2[nH]cnc12"
recorded_result = "14% (inactive)"

[[record]]
molecule = "CC(=O)NC1=C(Nc2ccc(-c3ccc(NC4=C(NC(C)=O)C(=O)c5ccccc5C4=O)cc3)cc2)C(=O)c2ccccc2C1=O"
recorded_result = "99% (active)"

[[record]]
molecule = "CCCCCCCCCCCCCCCC[N+](C)(C)C(C)c1ccc(OC)cc1 (stereo unspecified)"
recorded_result = "98% (active)"

[[record]]
molecule = "CCOP(=O)(OCC)/C(C#N)=C/c1ccc(Oc2ccccc2)cc1"
recorded_result = "-12% (inactive)"

[[record]]
molecule = "Cc1ccc(SSCCCS(=O)O)cc1"
recorded_result = "-1% (inactive)"


FYI, the data here is from PubChem BioAssay (NCI).
